Every entry's value here was drawn from patent US20220017615A1.

The following binders are shown together with reported mean fluorescence intensity values.
- test-system: T1, cynomolgus CD47, on CHOK1-cCD47 stable cell line (cynomolgus)
- T1 construct: whole, on cells; check before use; also called CHOK1/cynoCD47; monkey-derived CD47
- protocol-details: FACS CHOK1-cCD47; Ab 200 nM
reported-metric: mean fluorescence intensity

54G8G6 (antibody, V domains shown, Murine hybridoma antibody purified on protein G) VH: QVQLQQPGADLVKPGASVKMSCKASGYTFTSYWIIWVKQRPGQGLEWIGDINPGRGSPNYNEKFKRKATLTVDTSSSTAYMQLSSLTSEDSAVYYCVRGGLRRFDHWGQGTLVTVSA VL: ENVLTQSPAIMSASPGEKVTMTCRASSSVSSSYLHWYQQKSGASPKLWIYSTSTLASGVPARFSGSGSGTSYSLTISSVEAEDAATYYCQQYSGYPYTFGGGTKLEIK | 17200
4D10B11 (antibody, V domains shown, Murine hybridoma antibody purified on protein G) VH: QVQLQQSGPELVKPGASVKISCKASGYSFTSYYIHWVKQRPGQGLEWIGWIYPGSGNTKYNEKFKGKATLTADTSSSTADMQLSSLTSEDSAVYYCARRGDWYFDVWGTGTTVTVSS VL: DIVMSQSPSSLVVSVGEKVTMNCKSSQSLLFSGNQKSSLAWYQQKPGQSPKLLIYWASTRESGVPDRFTGSGSGTDFTLIISTVKAEDLAVYSCQQYYSYPLTFGAGTKLELK | 8870
51E2F11 (antibody, V domains shown, Murine hybridoma antibody purified on protein G) VH: EVQLQQSGAELVKPGASVKLSCTASGFNIKDHYIHWMNQRTEQGLEWIGRIDPDDGETRYAPKFRGKATLTADTSSNTAYLQFSSLTSEDTAVYHCTRATTITRDWYFDVWGTGTTVTVSS VL: DIVMTQSQKFMSTSVGDRVSITCKASQNVRTSVAWYQQKPGQSPKALIYLASNRHTGIPDRFTGSGSGTDFTLTIRNVQSEDLADYFCLQHWDYPLTFGAGTKLELK | 9460
